Each item that follows carries a reported pIC50.
ASSAYED_SYSTEM: H1047R PIK3CA enzyme (Homo sapiens, UniProt P42336, H1047R)
Sequence (P42336 whole entry H1047R): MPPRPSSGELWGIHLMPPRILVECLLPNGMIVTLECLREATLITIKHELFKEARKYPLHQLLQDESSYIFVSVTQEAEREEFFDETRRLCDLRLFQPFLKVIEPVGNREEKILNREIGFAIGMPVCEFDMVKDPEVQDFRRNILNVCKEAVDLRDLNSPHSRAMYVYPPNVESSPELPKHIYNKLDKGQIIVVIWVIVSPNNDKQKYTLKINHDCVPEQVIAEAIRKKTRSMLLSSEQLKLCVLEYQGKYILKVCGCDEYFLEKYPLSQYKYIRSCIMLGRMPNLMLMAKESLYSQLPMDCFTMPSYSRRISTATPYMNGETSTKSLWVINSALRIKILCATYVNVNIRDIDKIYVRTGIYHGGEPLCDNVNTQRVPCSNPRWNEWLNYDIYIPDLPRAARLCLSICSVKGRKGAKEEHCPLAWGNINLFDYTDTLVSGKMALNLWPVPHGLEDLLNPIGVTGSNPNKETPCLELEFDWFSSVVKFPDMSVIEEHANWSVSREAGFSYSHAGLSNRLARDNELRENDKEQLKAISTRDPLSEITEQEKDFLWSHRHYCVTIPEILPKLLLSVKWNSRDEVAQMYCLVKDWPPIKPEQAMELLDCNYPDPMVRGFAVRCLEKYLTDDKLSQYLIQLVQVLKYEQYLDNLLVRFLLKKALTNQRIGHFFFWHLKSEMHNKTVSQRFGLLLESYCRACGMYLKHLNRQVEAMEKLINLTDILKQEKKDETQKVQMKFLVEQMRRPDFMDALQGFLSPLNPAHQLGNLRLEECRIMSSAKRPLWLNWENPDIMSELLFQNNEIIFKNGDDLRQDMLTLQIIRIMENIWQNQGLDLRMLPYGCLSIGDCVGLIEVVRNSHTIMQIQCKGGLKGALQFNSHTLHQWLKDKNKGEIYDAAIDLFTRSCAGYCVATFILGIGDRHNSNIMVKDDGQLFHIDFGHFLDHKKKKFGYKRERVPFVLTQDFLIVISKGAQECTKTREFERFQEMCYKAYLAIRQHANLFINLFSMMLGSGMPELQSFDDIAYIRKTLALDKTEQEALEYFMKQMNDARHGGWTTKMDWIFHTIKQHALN
Sequence (P27986 whole entry partner): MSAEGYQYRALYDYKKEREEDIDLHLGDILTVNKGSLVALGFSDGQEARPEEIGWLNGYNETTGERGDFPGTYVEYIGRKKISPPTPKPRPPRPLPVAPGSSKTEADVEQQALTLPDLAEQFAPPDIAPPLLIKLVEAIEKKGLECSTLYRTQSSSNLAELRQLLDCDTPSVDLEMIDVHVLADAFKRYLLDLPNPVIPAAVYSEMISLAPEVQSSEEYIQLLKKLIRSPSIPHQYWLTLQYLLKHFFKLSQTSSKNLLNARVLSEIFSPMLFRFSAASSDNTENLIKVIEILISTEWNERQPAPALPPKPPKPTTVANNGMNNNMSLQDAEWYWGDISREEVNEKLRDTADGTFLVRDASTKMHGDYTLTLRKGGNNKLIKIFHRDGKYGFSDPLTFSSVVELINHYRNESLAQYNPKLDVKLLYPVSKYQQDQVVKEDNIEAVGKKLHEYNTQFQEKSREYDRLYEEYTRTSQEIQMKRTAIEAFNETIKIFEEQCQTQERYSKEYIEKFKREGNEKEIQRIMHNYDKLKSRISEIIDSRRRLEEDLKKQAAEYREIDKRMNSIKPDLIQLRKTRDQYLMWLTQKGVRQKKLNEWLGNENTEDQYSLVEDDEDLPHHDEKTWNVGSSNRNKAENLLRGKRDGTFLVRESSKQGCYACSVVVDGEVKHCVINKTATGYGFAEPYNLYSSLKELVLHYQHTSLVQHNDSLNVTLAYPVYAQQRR
PROTOCOL_NOTES: ADP-Glo Biochemical PIK3CA Kinase Assay
pIC50: −log10 of the molar value.
PROPERTY: pIC50

{"MOLECULE": "C=CC(=O)Nc1cc(NC(=O)c2cc(F)cc(C(F)(F)F)c2)c2c(c1)C(=O)NC2c1cc(F)ccc1Cl (stereo not shown)", "PROPERTY": "pIC50", "RESULT": "≥ 7.00"}
{"MOLECULE": "Cn1cc(-c2cc(NC(=O)c3nsc4ccccc34)c3c(n2)C(=O)NC3c2ccccc2Cl)cn1 (stereo not shown)", "PROPERTY": "pIC50", "RESULT": "6.30 to 7.00"}
{"MOLECULE": "O=C1N[C@@H](c2cc(F)ccc2Cl)c2c(NC(=O)[C@H]3CC(C(F)(F)F)C[C@@H](O)C3)cc(Br)cc21 (single isomer, unassigned) [Compound I-2152]", "PROPERTY": "pIC50", "RESULT": "5.00 to 6.00"}
{"MOLECULE": "C[S@](=O)(Cc1cc(NC(=O)c2cc(F)cc(C(F)(F)F)c2)c2c(c1)C(=O)N[C@@H]2c1cc(F)ccc1Cl)=NC#N (single isomer, unassigned) [Compound I-1563]", "PROPERTY": "pIC50", "RESULT": "≥ 7.00"}
